Source listed as the RNAGym collection of RNA variant scans (doi:10.7554/elife.90254).

B1: LINE1-full (parent)
chain: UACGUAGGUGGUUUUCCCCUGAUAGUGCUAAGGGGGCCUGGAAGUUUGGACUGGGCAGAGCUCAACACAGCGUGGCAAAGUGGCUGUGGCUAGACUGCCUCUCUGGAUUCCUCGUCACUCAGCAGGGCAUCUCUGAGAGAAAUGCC

# Variants of: B1
# ASSAY METHOD TEXT: self-cleavage, relative activity (ratio to wild type); higher = more cleavage; in vitro, sequencing; the parent is a self-cleaving ribozyme
MEASUREMENT LABEL: self-cleavage

UACGUAGGUGGUUUUCCCCUGAUAGAGCUAAGGGGGCCUGGAAGUUUGGACUGGGCAGAGCUCAACACAGCGUGGCAAAGUGGCUGUGGCUAGACUGCCUCUCUGGACUCCUCGUCACUCAGCAGGGCAUCUCUGAGAGAAAUGCC :: 1.13
UACGUAGGUGGUUUUCCCCUGAUAGUGCUAAGGGGGCCUGGAAGUUUGGACUGGGCAGAGCUCAACACAGCGUGGCAAAGUGGCUGUGGCUGGACUGCCUCUCUGGAUUCCUCGUCACUCAGCAGGGCUUCUCUGAGAGAAAUGCC :: 0.17
UACGUAGGUGGUUUUCCCCUGAUAGUGCUAAGGGGGCCUGGAAGUUUGGACUGGGCAGAGCUCAACACAGCGAGGCAAAGUGGCUGUGGCUAGACUGCCUCUCUGGAUUCCUCGUCACUCAGCAGGGCAUCACUGAGAGAAAUGCC :: 1.73
UACGUAGGUGGUUUUCCCCUGAUAGUGCUAAGGGGGCCUGGAAGUUUGGACUGGGCAGAGCUCAACACAGCGUGGCAAUGUGGCUGUGGCUAGACUGCCUCUCUGGAUUCCUCGUCACUCAGCAGGGCAUCUCUGAGAGAUAUGCC :: 2.36

Give one value of self-cleavage per listed variant.
1. UACGUAGGUGGUUUUCCCCUGAUAGUGCUAAGGGGGCCUGGAAGUUUGGACUGGGCAGAGCUCAACACAGCGUGGCAAAGUGGCAGUGGCUAGACUGCCUCUCUGGAUUCCUCGUCACUCAGCAGUGCAUCUCUGAGAGAAAUGCC
2. UACGUAGGUGGUUUUCCCCUGUUAGUGCUAAGGGGGCCUGGAAGUUUGGACUGGGCAGAGCUCAACACAGCGUGGCAAAGUGGCUGUGGCUAGACUGCCCCUCUGGAUUCCUCGUCACUCAGCAGGGCAUCUCUGAGAGAAAUGCC
3. UACGUAGGUGGUUUUCCCCUGAUAGUGCUAAGGGGGCCUGGAAGUUUGGACUGGGCAGAGCUCAACACAGCGUGGCAAGGUGGGUGUGGCUAGACUGCCUCUCUGGAUUCCUCGUCACUCAGCAGGGCAUCUCUGAGAGAAAUGCC
4. UACGUAGGUGGUUUUCCCCUGAUAGUGCUAAGGGGGCCUGGUAGUUUGGACUGGGAAGAGCUCAACACAGCGUGGCAAAGUGGCUGUGGCUAGACUGCCUCUCUGGAUUCCUCGUCACUCAGCAGGGCAUCUCUGAGAGAAAUGCC

1: 0.07; 2: 1.54; 3: 0.07; 4: 0.05
